target: T1, Rat Serum Albumin (rat, UniProt P02770 25-608); experiment: BIAcore SPR;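 further: purified dAbs run at 1 µM, 500 nM and 50 nM over human, cynomolgus, mouse and rat serum albumin in BIAcore binding measurements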
T1 construct: mature; purified protein on CM5 chips for BIAcore; also called RSA; rat SA
T1 sequence (P02770 25-608): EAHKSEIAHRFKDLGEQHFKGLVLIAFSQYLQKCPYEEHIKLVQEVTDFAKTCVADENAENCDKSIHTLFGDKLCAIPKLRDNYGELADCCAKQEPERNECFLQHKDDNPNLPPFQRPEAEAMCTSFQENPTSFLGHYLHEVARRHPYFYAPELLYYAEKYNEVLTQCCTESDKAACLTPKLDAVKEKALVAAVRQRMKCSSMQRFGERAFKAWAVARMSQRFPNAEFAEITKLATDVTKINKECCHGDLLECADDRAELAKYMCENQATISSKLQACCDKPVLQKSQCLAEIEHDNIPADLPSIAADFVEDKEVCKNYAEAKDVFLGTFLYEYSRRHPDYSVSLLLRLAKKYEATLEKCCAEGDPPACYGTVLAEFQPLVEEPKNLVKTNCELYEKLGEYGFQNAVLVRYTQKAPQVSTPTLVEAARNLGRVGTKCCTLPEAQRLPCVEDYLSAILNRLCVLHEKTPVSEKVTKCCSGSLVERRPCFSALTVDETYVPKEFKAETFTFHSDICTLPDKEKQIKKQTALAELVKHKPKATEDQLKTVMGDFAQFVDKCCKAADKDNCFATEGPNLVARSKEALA
QUANTITY: kon (M⁻¹ s⁻¹)
Use M⁻¹ s⁻¹ as the unit, but write only the number.

Please indicate kon recorded for DOM7h-11-19 (other) VL: DIQMTQSPSSLSASVGDRVTITCRASRPIGTMLSWYQQKPGKAPKLLILFGSRLQSGVPSRFSGSGSGTDFTLTISSLQPEDFATYYCAQTGTHPTTFGQGTKVEIKR 980000

Identify measured kon corresponding to DOM7h-11-12 (other) VL: DIQMTQSPSSLSASVGDRVTITCRASRPIGTMLSWYQQKPGKAPKLLILFGSRLQSGVPSRFSGSGSGTDFTLTISSLQPEDFATYYCAQAGTHPTTFGQGTKVEIKR 2.76e+06

Give the value of kon reported for the following: DOM7h-14-10 (other, Vk dAb (AlbudAb)) VL: DIQMTQSPSSLSASVGDRVTITCRASQWIGSQLSWYQQKPGKAPKLLIMWRSSLQSGVPSRFSGSGSGTDFTLTISSLQPEDFATYYCAQGLRHPKTFGQGTKVEIKR 4.57e+06

For the binder DOM7h-11-18 (other) VL: DIQMTQSPSSLSASVGDRVTITCRASRPIGTMLSWYQQKPGKAPKLLIWFGSRLQSGVPSRFSGSGSGTDFTLTISSLQPEDFATYHCAQAGTHPTTFGQGTKVEIKR , give its reported kon. 1.64e+06

Item DOM7h-14-19 (other, Vk dAb (AlbudAb)) VL: DIQMTQSPSSLSASVGDRVTISCRASQWIGSQLSWYQQKPGEAPKLLIMWRSSLQSGVPSRFSGSGSGTDFTLTISSLQPEDFATYYCAQGAALPRTFGQGTKVEIKR : provide kon 320000

Tell me measured kon for DOM7h-14 (other, Vk dAb (AlbudAb)) VL: DIQMTQSPSSLSASVGDRVTITCRASQWIGSQLSWYQQKPGKAPKLLIMWRSSLQSGVPSRFSGSGSGTDFTLTISSLQPEDFATYYCAQGAALPRTFGQGTKVEIKR please. 4e+06

Provide measured kon value, entry: DOM7h-11-15 (other) VL: DIQMTQSPSSLSASVGDRVTITCRASRPIGTMLSWYQQKPGKAPKLLILAFSRLQSGVPSRFSGSGSGTDFTLTISSLQPEDFATYYCAQAGTHPTTFGQGTKVEIKR 1.1e+06

Item DOM7h-11 (other) VL: DIQMTQSPSSLSASVGDRVTITCRASRPIGTTLSWYQQKPGKAPKLLIWFGSRLQSGVPSRFSGSGSGTDFTLTISSLQPEDFATYYCAQAGTHPTTFGQGTKVEIKR : provide kon 48000

Given DOM7h-14-18 (other, Vk dAb (AlbudAb)) VL: DIQMTQSPSSLSASVGDRVTITCRASQWIGSQLSWYQQKPGKAPKLLIMWRSSLQSGVPSRFSGSGSGTDFTLTISSLQPEDFATYYCAQGLMKPMTFGQGTKVEIKR , respond with its kon. 560000
